- MEASURED TARGET: LIM domain kinase 1 (Homo sapiens, UniProt P53667)
- Sequence (P53667 whole entry, the tested form may be a part): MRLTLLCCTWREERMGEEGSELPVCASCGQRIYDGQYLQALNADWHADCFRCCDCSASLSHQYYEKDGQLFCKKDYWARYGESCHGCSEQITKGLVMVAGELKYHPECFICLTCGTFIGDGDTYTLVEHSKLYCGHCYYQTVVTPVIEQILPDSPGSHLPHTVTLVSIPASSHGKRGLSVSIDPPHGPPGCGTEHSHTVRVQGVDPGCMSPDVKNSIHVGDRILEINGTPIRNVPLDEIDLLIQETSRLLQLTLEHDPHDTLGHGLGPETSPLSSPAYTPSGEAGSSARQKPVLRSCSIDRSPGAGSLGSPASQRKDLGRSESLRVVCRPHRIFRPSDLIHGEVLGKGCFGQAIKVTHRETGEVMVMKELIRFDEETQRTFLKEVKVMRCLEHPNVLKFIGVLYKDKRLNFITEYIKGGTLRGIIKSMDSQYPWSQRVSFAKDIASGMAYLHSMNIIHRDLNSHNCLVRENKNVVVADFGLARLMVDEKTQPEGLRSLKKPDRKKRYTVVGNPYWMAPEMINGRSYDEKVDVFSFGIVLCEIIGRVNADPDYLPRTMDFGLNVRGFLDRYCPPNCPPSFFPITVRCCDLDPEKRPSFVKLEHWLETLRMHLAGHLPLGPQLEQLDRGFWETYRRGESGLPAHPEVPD
- PROTOCOL: Binding affinity to LIMK1 (unknown origin) expressed in permeabilized HEK293T cells incubated for 2 hrs by NanoBRET assay
OBSERVATION TYPE: pEC50
When answering, recall that pEC50 equals minus log10 of the concentration in mol/L, and write that number alone.

Find the measured pEC50: item O=C1NCCCCCNc2nc(c3ccccc3n2)Nc2cc1[nH]n2 , target or system LIM domain kinase 1 (Homo sapiens, UniProt P53667).
5.61

====

- PROTOCOL: Toxicity in human HCT-116 cells expressing FUCCI assessed as normalized cell count at 10 uM measured after 72 hrs by Hoechst33342 staining based analysis relative to control
- EXPERIMENTAL SETUP: read-out: Activity
OBSERVATION TYPE: viability at 72 h, 10 µM

I have this compound here, O=C1NCCCCCNc2nc(c3ccccc3n2)Nc2cc1[nH]n2 , and I need its recorded viability at 72 h, 10 µM.
< 30%

====

Parameter: EC50. Scope: all listed entries.
- MEASURED TARGET: Serine/threonine-protein kinase 26 (Homo sapiens, UniProt Q9P289)
- Sequence (Q9P289 whole entry): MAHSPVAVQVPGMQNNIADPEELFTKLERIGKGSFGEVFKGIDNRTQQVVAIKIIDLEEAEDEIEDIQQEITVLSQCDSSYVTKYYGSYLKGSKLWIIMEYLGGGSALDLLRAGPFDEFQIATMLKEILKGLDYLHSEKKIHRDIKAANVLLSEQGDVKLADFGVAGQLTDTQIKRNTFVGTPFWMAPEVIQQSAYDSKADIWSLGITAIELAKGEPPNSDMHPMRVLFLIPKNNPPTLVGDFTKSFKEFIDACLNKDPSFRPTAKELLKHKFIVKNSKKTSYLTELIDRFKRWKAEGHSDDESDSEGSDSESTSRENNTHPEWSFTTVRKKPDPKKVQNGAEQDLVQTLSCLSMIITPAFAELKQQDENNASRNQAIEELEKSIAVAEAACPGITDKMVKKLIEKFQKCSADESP
- PROTOCOL: Binding affinity to C-terminal full length human MST4 expressed in permeabilized HEK293T cells incubated for 2 hrs by NanoBRET assay
- Format: cell-based
Answer format: numeric, µM implied, no suffix.

Example cases with answers are listed next.
chem_smiles=O=C1NCCc2cccc(c2)Nc2ncc(Cl)c(n2)Nc2cc1[nH]n2 assay_value=10.3
chem_smiles=O=C1NCCCCCNc2ncc(Cl)c(n2)Nc2cc1[nH]n2 assay_value=7.76
chem_smiles=O=C1NCCCCCCNc2nc(c3ccccc3n2)Nc2cc1[nH]n2 assay_value=1.26

I have this molecule here, O=C1NCCc2ccc(cc2)Nc2nc(c3ccccc3n2)Nc2cc1[nH]n2 , and I need its recorded EC50.
2.75

I have this molecule here, O=C1NCCCCCNc2nc(c3ccccc3n2)Nc2cc1[nH]n2 , and I need its recorded EC50.
0.36

I have this molecule here, O=C1NCCc2cccc(c2)Nc2nc(c3ccccc3n2)Nc2cc1[nH]n2 , and I need its recorded EC50.
2.44

====

- MEASURED TARGET: Serine/threonine-protein kinase 24 (Homo sapiens, UniProt Q9Y6E0)
- Sequence (Q9Y6E0 whole entry): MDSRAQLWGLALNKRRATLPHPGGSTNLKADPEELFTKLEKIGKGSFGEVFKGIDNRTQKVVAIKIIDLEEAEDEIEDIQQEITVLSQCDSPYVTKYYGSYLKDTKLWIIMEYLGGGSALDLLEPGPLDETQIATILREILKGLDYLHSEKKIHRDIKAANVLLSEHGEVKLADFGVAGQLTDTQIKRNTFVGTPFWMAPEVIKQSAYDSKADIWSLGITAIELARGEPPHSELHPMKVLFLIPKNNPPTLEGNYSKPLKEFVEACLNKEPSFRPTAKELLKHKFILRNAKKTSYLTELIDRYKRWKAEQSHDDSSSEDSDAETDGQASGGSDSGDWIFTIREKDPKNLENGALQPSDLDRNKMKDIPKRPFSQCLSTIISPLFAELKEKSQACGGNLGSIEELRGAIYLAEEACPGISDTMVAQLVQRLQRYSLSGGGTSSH
- PROTOCOL: Binding affinity to C-terminal full length human MST3 expressed in intact HEK293T cells incubated for 2 hrs by NanoBRET assay
- Assay type: cell-based
OBSERVATION TYPE: log10 EC50 (log10 of the value in µM)
Answers are given as log10 of EC50 in µM.

Example cases with answers are listed next.
chem_smiles=O=C1NCCc2ccc(cc2)Nc2ncc(Cl)c(n2)Nc2cc1[nH]n2 observation_type="log10 EC50" assay_value=0.70
chem_smiles=O=C1NCCOCCNc2nc(c3ccccc3n2)Nc2cc1[nH]n2 observation_type="log10 EC50" assay_value=0.65
chem_smiles=O=C1NCCCCCCNc2nc(c3ccccc3n2)Nc2cc1[nH]n2 observation_type="log10 EC50" assay_value=0.24
chem_smiles=N#CCc1ccc(Nc2nccc(Nc3cc(C4CC4)[nH]n3)n2)cc1 observation_type="log10 EC50" assay_value=0.82
chem_smiles=O=C1NCCc2cccc(c2)Nc2ncc(Cl)c(n2)Nc2cc1[nH]n2 observation_type="log10 EC50" assay_value=1.15

I have this compound here, O=C1NCCCCCNc2nc(c3ccccc3n2)Nc2cc1[nH]n2 , and I need its recorded log10 EC50.
-0.96

I have this compound here, O=C1NCCCCCNc2ncc(Cl)c(n2)Nc2cc1[nH]n2 , and I need its recorded log10 EC50.
1.61

I have this compound here, Cc1cnc2nc1Nc1cc([nH]n1)C(=O)NCCc1ccc(cc1)N2 , and I need its recorded log10 EC50.
1.57

I have this compound here, O=C1NCCc2cccc(c2)Nc2nc(c3ccccc3n2)Nc2cc1[nH]n2 , and I need its recorded log10 EC50.
0.81

I have this compound here, O=C1NCCc2ccc(cc2)Nc2nc(c3ccccc3n2)Nc2cc1[nH]n2 , and I need its recorded log10 EC50.
0.65
